# assay.name: LogP of the perfume ingredients
# Type: physicochemical
# measurement.parameters: perfume ingredients of Table 1a; read-out: LogP
quantity.measured: logP

>>> meas_value("C=CC(C)(CCC=C(C)C)OC(C)=O (stereo not shown) [Linalyl acetate]")
4.39
>>> meas_value("CCCCCCCCCC(C)C=O (stereo not shown)")
4.67
>>> meas_value("CC12CCC(CC1=O)C2(C)C (stereo not shown)")
3.04
>>> meas_value("CC(C)=CCCC1=CCC(C)(C=O)CC1 (stereo not shown)")
5.18
>>> meas_value("CC12CCC(CC1)C(C)(C)O2")
3.13
>>> meas_value("CC(=O)C(C)=CC1C(C)=CCCC1(C)C (stereo not shown)")
4.84
>>> meas_value("CC(C)[C@@H]1CC[C@@H](C)CC1=O")
2.87
